Recorded Inh (PKA) by entry
- System: PRKACA-PRKAR2A interaction (SmBiT-PRKACA / LgBiT-PRKAR2A), protein kinase A
- Parameters: NanoLuc complementation counter-screen in cell extract, PRKACA with PRKAR2A, loss of luminescence, detects NanoLuc interference
- measurement context: counter-screen for NanoLuc interference; 0.5 h, 20 µM; inhibitor
Counter-ions that a name gives are not always drawn.

molecule: Cc1cc(/C=C/C#N)cc(C)c1Nc1ccnc(Nc2ccc(C#N)cc2)n1 [UM0141618:01, Rilpivirine]
reading unit: %
Inh (PKA): 30.56
//
molecule: CC(=O)O[C@H]1C[C@@]2(C)[C@@H](C[C@@H](O)[C@H]3[C@@]4(C)CC[C@@H](O)[C@@H](C)[C@@H]4CC[C@@]32C)/C1=C(\CCC=C(C)C)C(=O)O [UM0142840:01, Fusidic Acid (sodium salt)]
reading unit: %
Inh (PKA): 1.888
//
molecule: COc1ccc2c(c1)c(C1=C(c3c[nH]c4ccccc34)C(=O)NC1=O)cn2CCCN(C)C [UM0127865:02, Go 6983]
reading unit: %
Inh (PKA): 49.99
//
molecule: NCc1c[nH]c(=S)n1[C@H]1CCc2c(F)cc(F)cc2C1 [UM0141789:01, Nepicastat (SYN-117) HCl]
reading unit: %
Inh (PKA): 5.542
//
molecule: CCN(CC)CCOc1ccc(C(=C(Cl)c2ccccc2)c2ccccc2)cc1 [UM0132668:02, Clomiphene citrate]
reading unit: %
Inh (PKA): 14.01
//
molecule: Nc1c(CC(=O)O)cccc1C(=O)c1ccccc1 [UM0142341:01, Amfenac Sodium Monohydrate]
reading unit: %
Inh (PKA): 3.127
//
molecule: CNc1cc(-c2cccc(Cl)c2Cl)nc(N)n1 [UM0142665:01, TH287]
reading unit: %
Inh (PKA): 9.555
//
molecule: CN(C)Cc1ccc(-c2nc3cccc4c3n2CCNC4=O)cc1 [UM0141737:01, AG-14361]
reading unit: %
Inh (PKA): 2.033
//
molecule: CC(C)[C@H]1C(=O)N[C@@H](CCCNC(=N)N)C(=O)NCC(=O)N[C@@H](CC(=O)O)C(=O)N[C@H](Cc2ccccc2)C(=O)N1C [UM0142112:01, Cilengitide]
reading unit: %
Inh (PKA): 0.5722
//
molecule: CN1CCN2c3ccccc3Cc3ccccc3C2C1 (centres unmarked) [UM0118451:03, Mianserin HCl]
reading unit: %
Inh (PKA): 11.82
//
molecule: Cc1cc2c(F)c(Oc3ncnn4cc(OC[C@@H](C)OC(=O)[C@H](C)N)c(C)c34)ccc2[nH]1 [UM0141479:01, Brivanib Alaninate (BMS-582664)]
reading unit: %
Inh (PKA): 33.56
//
molecule: CN(C[C@@H]1COCCO1)S(=O)(=O)Nc1ccc2ccc3ncc(-c4cnn(C)c4)cc3c(=O)c2c1 [UM0142058:01, MK-2461]
reading unit: %
Inh (PKA): 13.67
//
molecule: O=C(O)CCNc1cc(N2CCc3ccccc3CC2)nc(-c2ccccn2)n1 [UM0141755:01, GSK J1]
reading unit: %
Inh (PKA): 1.8
//
molecule: Cc1cccc(-c2nn3c(c2-c2ccnc4ccc(C(N)=O)cc24)CCC3)n1 [UM0142007:01, LY2157299]
reading unit: %
Inh (PKA): 1.976
